All values here come from patent US20090270407A1.

Test system: Puccinia recondita f. sp. tritici
experiment-notes: Test B: wheat leaf rust, preventive spray on wheat seedlings, visual disease rating
experimental-conditions: 200 ppm; 100 = 100 % disease control, 0 = no disease control relative to controls
quantity-kind: Test B disease control rating (%)
Output spec: scalar in %, unitless text.

- compound: "Cc1cccc(-c2ccc(C3CC(c4cccnc4)(C(F)(F)F)ON3C)cc2)c1C (racemic) [Compound 32]"
  quantity-kind: "Test B disease control rating"
  observed: 0

**Q:** Report Test B disease control rating for CN1OC(C)(c2cccnc2)CC1c1cccc2c1OC(F)(F)O2 (mixture of isomers) [Compound 89] please.
**A:** 0

**Q:** Report Test B disease control rating for CN1OC(C)(c2cccnc2)CC1c1ccc(I)cc1 (racemic) [Compound 15] please.
**A:** 0

**Q:** Report Test B disease control rating for CN1OC(C)(c2cccnc2)CC1c1ccc(Oc2ccccc2)cc1 (racemic) [Compound 10] please.
**A:** 82

**Q:** Report Test B disease control rating for COC(=O)c1ccc(C2CC(C)(c3cccnc3)ON2C)cc1 (stereo not shown) please.
**A:** 0

**Q:** Report Test B disease control rating for CN(C)c1ccc(C2CC(C)(c3cccnc3)ON2C)c2ccccc12 (mixture of isomers) please.
**A:** 0

**Q:** Report Test B disease control rating for CN1OC(C)(c2cccnc2)CC1c1cccc(Cl)c1 (stereo not shown) [Compound 76] please.
**A:** 0

**Q:** Report Test B disease control rating for CN1O[C@@](C)(c2cccnc2)C[C@@H]1c1ccc(Cl)cc1 (relative stereo) please.
**A:** 0

**Q:** Report Test B disease control rating for CN1OC(C)(c2cccnc2)CC1c1ccc(Br)cc1 (racemic) [Compound 4] please.
**A:** 32

**Q:** Report Test B disease control rating for CN1OC(C)(c2cccnc2)CC1c1ccc(F)c(F)c1 (stereo not shown) [Compound 82] please.
**A:** 18
